We begin with a simple list: items and their reported growth.
Test system: MALME-3M melanoma
TEST DETAILS: NCI-60 one-dose screen, 48 h (100 = growth as untreated, 0 = no growth, -100 = all killed)
PARTICULARS: 10 µM unless noted
The panel holds about 83,000 compounds, 20% with a hit somewhere; the sample as a whole holds those more often.
The reply should be a number in %, with the unit left off.

-- ask Provide the documented growth with MALME-3M melanoma as the system for COc1cccc(-c2ccc(/C=N/NC(=O)c3[nH]c4ccc(Br)cc4c3-c3ccccc3)s2)c1
-- reply 33.1

***
-- ask Provide the documented growth with MALME-3M melanoma as the system for COC(=O)c1cc(C(=O)C(F)(F)F)n2c3ccccc3c3ccccc3c12
-- reply 104

-- ask Thanks! And COc1ccccc1NC(=O)c1ccc(NC(=O)CCl)s1 ?
-- reply -4.74

-- ask Thanks! And Cc1cc(C)c2[nH]c(=O)c(C(c3nnnn3Cc3ccc4c(c3)OCO4)N3CCN(C)CC3)cc2c1 (configuration not stated) ?
-- reply 110

-- ask Thanks! And C[C@H](NC(=O)c1ccc2c(-c3ccc(C(F)(F)F)cc3)cccc2c1)c1ccccn1 ?
-- reply 67

-- ask Thanks! And COc1ccc2ccccc2c1/C=C1\SC(=Nc2ccc(O)cc2)NC1=O ?
-- reply 30.1

-- ask Thanks! And COc1ccc2c(c1)c(-c1cc(N)n3nc(-c4c[nH]c5ccccc45)cc3n1)cn2C ?
-- reply -89.9

-- ask Thanks! And O=C(N/N=C/c1ccc(Cl)cc1)c1ccc(OCc2nc3ccc(Cl)cc3[nH]2)cc1 ?
-- reply 37.5

-- ask Thanks! And Oc1ccc(Cl)c(Nc2nc(SCCN3CCOCC3)nc3c2cnn3CC(Cl)c2ccc(Br)cc2)c1 (configuration not stated) ?
-- reply 12.2
